Entries and their measured CC50 follow.
# Tested on: SF-295
# Protocol summary: Growth inhibition of human SF295 cells
# Assay type: functional
# Assay setup: read-out: LC50 (the source's name)
Field format: number, assumed µM, no unit text.

1. O=C1/C(=C\c2ccccn2)c2ccccc2N1c1c(Cl)cccc1Cl = 13.8

INPUT: Entry under review: O=C1Nc2ccccc2/C1=C/c1cn(C(=O)c2c(Cl)cccc2Cl)c2ccccc12 . Reported CC50?
OUTPUT: 66.1

----------
Entries and their measured CC50 follow.
# Tested on: PC-3
# Protocol summary: Growth inhibition of human PC3 cells
# Format: functional
# Assay setup: read-out: LC50 (the source's name)

Guide cases for CC50, answers given:
1. O=C1/C(=C\c2ccccn2)c2ccccc2N1c1c(Cl)cccc1Cl = 93.3 µM
2. CC1=NN(c2cccc(Cl)c2)C(=O)/C1=C\C=C\c1ccccc1 = > 100 µM
3. O=C1/C(=C\c2coc3ccccc3c2=O)c2ccccc2N1c1c(Cl)cccc1Cl = > 100 µM
4. O=C1Nc2ccccc2/C1=C/c1cn(C(=O)c2c(Cl)cccc2Cl)c2ccccc12 = > 100 µM

INPUT: Entry under review: CC1=NN(c2cccc(Cl)c2)C(=O)/C1=C\c1c(O)ccc2ccccc12 . Reported CC50?
OUTPUT: > 100 µM
